The reported numbers originate from ChEMBL document CHEMBL2384967.

Tested on: Francisella tularensis
Assay: Antibacterial activity against Francisella tularensis LVS after 18 hrs by Microplate Alamar Blue assay
Format: functional
value kind: MIC90 (µg/mL)
Note: unit µg/mL is implicit; provide only the numeric part.

Reference set (4 entries):
O=C(Nc1cc2nc(C3CCCCC3)[nH]c2cc1N1CCCC1)C1CC1 : 2.1
CC(C)(C)OC(=O)Nc1cc(NC(=O)OCc2ccccc2)c2[nH]c(-c3ccccc3)nc2c1 : 0.35
CCOC(=O)Nc1cc(N)c2[nH]c(-c3ccc(Br)cc3)nc2c1 : 2.99
O=C(Nc1cc2nc(-c3ccco3)[nH]c2cc1N1CCCCC1)c1cccc2ccccc12 : 2.4

Shift focus to the following entry.
What reported MIC90 corresponds to `COc1ccccc1C(=O)Nc1cc2nc(-c3cccs3)[nH]c2cc1N1CCCCC1` on Francisella tularensis?
1.6
